- System tested: CsnR (Streptomyces lividans, UniProt A0ABN4DYL3)
- Sequence (A0ABN4DYL3 entry or part of it): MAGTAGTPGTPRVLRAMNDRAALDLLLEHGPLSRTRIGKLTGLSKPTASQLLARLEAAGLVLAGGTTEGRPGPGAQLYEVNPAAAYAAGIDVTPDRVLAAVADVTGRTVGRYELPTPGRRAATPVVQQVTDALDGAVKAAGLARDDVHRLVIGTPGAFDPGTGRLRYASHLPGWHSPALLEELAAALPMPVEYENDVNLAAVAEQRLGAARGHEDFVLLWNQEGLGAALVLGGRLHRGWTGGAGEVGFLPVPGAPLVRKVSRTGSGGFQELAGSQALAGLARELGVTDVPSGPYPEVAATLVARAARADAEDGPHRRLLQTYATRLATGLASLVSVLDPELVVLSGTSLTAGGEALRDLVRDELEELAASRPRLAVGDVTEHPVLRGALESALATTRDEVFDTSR
- Assay remarks: EMSA sugar binding assay: interference with CsnR binding to csnA-WT operator
- Applied conditions: equilibrium competition experiment and IC50 determination
Readout: effect on CsnR binding to operator (summary statement)

CC(=O)N[C@H]1C(O)O[C@H](CO)[C@@H](O)[C@@H]1O (stereo partly drawn) [GlcNAc, N-acetyl-D-glucosamine]    no effect
O=C[C@H](O)[C@@H](O)[C@H](O)[C@H](O)CO [glucose]    no effect
N[C@H]1C(O)O[C@H](CO)[C@H](O)[C@@H]1O (some centres unmarked) [galactosamine]    no effect

###

- System tested: CsnR (Streptomyces lividans, UniProt A0ABN4DYL3)
- Assay remarks: EMSA sugar binding assay: interference with CsnR binding to csnA-WT operator
- Applied conditions: saccharide at 500 nM, FIG. 9
Readout: effect on gel shift pattern of CsnR with csnA-WT operator

Would you please look over these solved cases?
O=C[C@H](O)[C@@H](O)[C@H](O)[C@H](O)CO    no effect
N[C@H]1C(O)O[C@H](CO)[C@@H](O)[C@@H]1O (some centres unmarked)    strongly affected
CC(=O)N[C@H]1C(O)O[C@H](CO)[C@@H](O)[C@@H]1O (some centres unmarked)    no effect
NC1C(OC2C(CO)OC(OC3C(CO)OC(OC4C(CO)OC(OC5C(CO)OC(O)C(N)C5O)C(N)C4O)C(N)C3O)C(N)C2O)OC(CO)C(O)C1O (centres unmarked)    strongly affected

*Q* Please give measured effect on gel shift pattern of CsnR with csnA-WT operator of the following entry: NC1C(OC2C(CO)OC(O)C(N)C2O)OC(CO)C(O)C1O (centres unmarked)
*A* strongly affected

###

- System tested: CsnR (Streptomyces lividans, UniProt A0ABN4DYL3)
- Assay remarks: EMSA equilibrium competition with DNA competitors against labeled csnA-WT probe
- Applied conditions: competitor double-stranded oligonucleotide 0.1 to 125 nM, 0.03 nM labeled csnA-WT probe, ~8.5 pmol CsnR, three independent experiments; read-out: IC50 (nM), effect of mutations in the operator sequence on CsnR binding
Readout: IC50 (nM)
Answer in nM, number only, no unit symbol.

Would you please look over these solved cases?
csnA-WT: double-stranded oligonucleotide, wild-type csnA operator, SEQ ID NO: 42 (CCTCTTCTGGTAGGAAACTTTCCTATCAGT; double-stranded, further chemistry not given here)    1.3
csnA-M1: double-stranded oligonucleotide, csnA operator mutated at position +2, SEQ ID NO: 43 (DNA CCTCTTCTGGTAGGAAACTGTCCTATCAGT; double-stranded, further chemistry not given here)    52.1
csnA-M2: double-stranded oligonucleotide, csnA operator mutated at position +6, SEQ ID NO: 44 (DNA CCTCTTCTGGTAGGAAACTTTCCGATCAGT; double-stranded, further chemistry not given here)    2.7

*Q* // output IC50; input csnA-MM: double-stranded oligonucleotide, csnA operator doubly mutated at +2 and +6, SEQ ID NO: 45 (CCTCTTCTGGTAGGAAACTGTCCGATCAGT; double-stranded, further chemistry not given here) ; system CsnR (Streptomyces lividans, UniProt A0ABN4DYL3)
*A* 105
